# Experimental target: Calmodulin-1 (Homo sapiens)
# Run description: small molecules binding calmodulin-1 with EGTA – biochemical, small-molecule microarray, Cy5-labelled CALM1, profiling panel (AID 1111);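 note: labelled calmodulin applied in Tris saline Tween buffer holding calcium plus EGTA and DTT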
# Assay setup: Cy5-CALM1 binding fluorescence, higher = more signal
Measured metric: composite z-score
Numbers only.

Name the reported composite z-score value associated with the compound [N-]=[N+]=Nc1ccccc1[C@H]1OC(c2ccc(OCCCO)cc2)=N[C@@]1(Cc1ccccc1)C(=O)NCc1ccccc1 0.503

Name the reported composite z-score value associated with the compound O=C1C2C=CC(C(O)c3cccc4ccccc34)N(Nc3ccccc3)C2C(=O)N1c1ccccc1 (configuration not stated) 0.972

Name the reported composite z-score value associated with the compound C=CC[C@@]1(C(=O)NCC(O)CO)N=C(c2ccc(OCCCO)cc2)O[C@@H]1c1ccccc1 (some centres not stated) 2.22

Name the reported composite z-score value associated with the compound COCCOC(=O)N1C(=O)[C@@]2(c3cc(C#CC4(O)CCCCCC4)ccc31)[C@H](C(=O)N1CCc3cc(OC)c(OC)cc3C1)[C@H]1C(=O)O[C@H](c3ccccc3)[C@H](c3ccccc3)N1[C@@H]2c1ccccc1OCCO 1.02

Parameter requested: composite z-score. Apply to each item below.
1. O=C(NCc1ccccc1)[C@]1(Cc2ccccc2)N=C(c2ccc(OCCCO)cc2)O[C@@H]1c1ccccc1
2. COc1ccc([Si](C)(C)[C@@H]2[C@@H](CC(=O)N3Cc4ccccc4C[C@H]3CO)O[C@]3(C(=O)N(Cc4cccc(N5CCCCC5=O)c4)c4ccccc43)[C@H]2C)cc1
3. O=C1N(CCS(=O)(=O)c2ccccc2)Cc2ccccc2C[C@@]12COC(c1ccc(OCCCO)cc1)=N2

1: 2.01; 2: 0.836; 3: 0.303

---

# Run description: plasmodial surface anion channel blockers, osmotic lysis – cell-based, P. falciparum Indochina, OD700, 18 h, primary screen (AID 1157)
# Assay setup: P. falciparum Indochina infected erythrocytes, osmotic lysis OD700, 18 h; higher = more signal, called active from +8 up or from −8 down
Give z-score for every item shown.
Answers are plain numbers.

# example entries with known answers
Name the reported z-score value associated with the compound COC(=O)[C@@]1(Cc2ccccc2N=[N+]=[N-])N=C(c2ccc(OCCCO)cc2)O[C@H]1c1ccccc1 2.28

Name the reported z-score value associated with the compound O=C1N(CCS(=O)(=O)c2ccccc2)c2ccccc2[C@H]2OC(c3ccc(OCCCO)cc3)=N[C@@]12CCS(=O)(=O)c1ccccc1 4.36

Name the reported z-score value associated with the compound COC(=O)[C@@]1(Cc2ccc(OC)cc2)[C@H]2c3cc(C(=O)N(C)C)n(Cc4cc(C)n(C)n4)c3C[C@H]2CN1C(=O)c1ccccc1 0.544

Name the reported z-score value associated with the compound [N-]=[N+]=Nc1ccccc1[C@H]1OC(c2ccc(OCCCO)cc2)=N[C@@]1(Cc1ccccc1)C(=O)NCc1ccccc1 2.33

Name the reported z-score value associated with the compound CN(C)CCCCCCNC(=O)[C@@H]1C[C@@H]2C(=O)NCC(=O)N2[C@@H]1c1ccc(O)cc1 -0.114

Name the reported z-score value associated with the compound [N-]=[N+]=NCc1ccccc1[C@H]1OC(c2ccc(OCCCO)cc2)=N[C@@]1(Cc1ccccc1N=[N+]=[N-])C(=O)NCCN1CCOCC1 1.85

Parameter requested: z-score. Apply to each item below.
1. COCCOC(=O)N1C(=O)[C@@]2(c3cc(C#Cc4ccc(OC)cc4)ccc31)[C@H](c1ccc(OCCO)cc1)N1[C@H](c3ccccc3)[C@H](c3ccccc3)OC(=O)[C@H]1[C@@H]2C(N)=O
2. C=C(/C(=C/C[C@@H](OC(=O)c1ccncc1)c1ccccc1OCCO)c1cnc2ccccc2c1)C(C)C

1. 0.924
2. 1.44
